Reference source: ChEMBL document CHEMBL1144643

- TEST_PROTOCOL: Cmax in Wistar rat plasma at 10 mg/kg, po
- Assay type: ADME, organism-based
- Set-up: dose 10 mg/kg, route oral
// reported Cmax per item
State just the number; it will be interpreted in nM.

Solved entries:
{"columns": ["STRUCTURE_STRING", "Cmax, nM"],
 "data": [
  ["O=C(N[C@H]1CCCC[C@@H]1O)c1cn(-c2ccc(Cl)cc2)c(-c2ccccc2Cl)n1", 1640],
  ["O=C(NC1CCCCC1)c1cn(-c2ccc(Cl)cc2)c(-c2ccc(Cl)cc2Cl)n1", 50]
]}

Query: Specify measured Cmax for "CCc1c(C(=O)N[C@H]2CCCC[C@@H]2O)nc(-c2ccccc2Cl)n1-c1ccc(Br)cc1" .
Reply: 2100

Query: Specify measured Cmax for "O=C(N[C@H]1CCC[C@@H]1O)c1cn(-c2ccc(Cl)cc2)c(-c2ccccc2Cl)n1" .
Reply: 2110
